tested on: 616215-338-R-J1-PDC complex spheroid viability; test: Anticancer human tumor 616215-338-R-J1-PDC patient-derived colon adenocarcinoma cell line growth inhibition [RAS]; details: second compound 0.3 µM; first compound 0.1 µM; hits give low values
endpoint.name: viability, T/C (%)
Give a bare numeral; the unit % is implied.

The cases that follow already have their viability, T/C on record.
CCN1CCN(Cc2ccc(Nc3ncc(F)c(-c4cc(F)c5nc(C)n(C(C)C)c5c4)n3)nc2)CC1 + CCn1c(-c2cccnc2C(C)OC)c2c3cc(ccc31)N1CCOC(CC(NC(=O)C(C(C)C)N(C)C(=O)C3(F)CCN(C(=O)C#CC(C)(C)N(C)C)CC3)C(=O)N3CCCC(N3)C(=O)OCC(C)(C)C2)C1 ... 116
CCC(CC)c1cc(NC2CCC(N)C2)n2nccc2n1 (configuration not stated) + CCn1c(-c2cccnc2C(C)OC)c2c3cc(ccc31)N1CCOC(CC(NC(=O)C(C(C)C)N(C)C(=O)C3(F)CCN(C(=O)C#CC(C)(C)N(C)C)CC3)C(=O)N3CCCC(N3)C(=O)OCC(C)(C)C2)C1 ... 112
C=CC(=O)Nc1cc(Nc2nccc(-c3cn(C)c4ccccc34)n2)c(OC)cc1N(C)CCN(C)C + CCn1c(-c2cccnc2C(C)OC)c2c3cc(ccc31)N1CCOC(CC(NC(=O)C(C(C)C)N(C)C(=O)C3(F)CCN(C(=O)C#CC(C)(C)N(C)C)CC3)C(=O)N3CCCC(N3)C(=O)OCC(C)(C)C2)C1 ... 89.9
C[C@@H](NC(=O)c1ncnc(N)c1Cl)c1ncc(C(=O)Nc2cc(C(F)(F)F)c(Cl)cn2)s1 + CCn1c(-c2cccnc2C(C)OC)c2c3cc(ccc31)N1CCOC(CC(NC(=O)C(C(C)C)N(C)C(=O)C3(F)CCN(C(=O)C#CC(C)(C)N(C)C)CC3)C(=O)N3CCCC(N3)C(=O)OCC(C)(C)C2)C1 ... 111
C=CC(=O)N1CCN(c2nc(OCC3CCCN3C)nc3c(F)c(-c4nc(N)cc(C)c4C(F)(F)F)c(Cl)cc23)C(C)C1 (configuration not stated) + CCn1c(-c2cccnc2C(C)OC)c2c3cc(ccc31)N1CCOC(CC(NC(=O)C(C(C)C)N(C)C(=O)C3(F)CCN(C(=O)C#CC(C)(C)N(C)C)CC3)C(=O)N3CCCC(N3)C(=O)OCC(C)(C)C2)C1 ... 112
NC1c2ccccc2OC12CCN(c1cnc3c(N4CCCc5ncccc54)n[nH]c3n1)CC2 (configuration not stated) + CCn1c(-c2cc(N3CCN(C)CC3)cnc2C(C)OC)c2c3cc(ccc31)-c1csc(n1)CC(NC(=O)C1CC1C)C(=O)N1CCCC(N1)C(=O)OCC(C)(C)C2 ... 40.5

Now look at this entry.
Quick note, viability, T/C for CC1(O)CCCC1n1c(=O)c(C(F)F)cc2cnc(NC3CCN(S(C)(=O)=O)CC3)nc21 (configuration not stated) + CCn1c(-c2cccnc2C(C)OC)c2c3cc(ccc31)N1CCOC(CC(NC(=O)C(C(C)C)N(C)C(=O)C3(F)CCN(C(=O)C#CC(C)(C)N(C)C)CC3)C(=O)N3CCCC(N3)C(=O)OCC(C)(C)C2)C1 landed at 74.3

----------
A collection of compounds and their measured viability, T/C
system: 616215-338-R-J1-PDC complex spheroid viability; test: Anticancer human tumor 616215-338-R-J1-PDC cell line growth inhibition [RAS]; conditions: second compound 0.316 µM; first compound 0.000949 µM; hits give low values;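 also: spheroids exposed to agents for seven days before viability readout; 100% = DMSO vehicle control viability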
Write the number in % without appending the unit.

CCc1c2c(nc3ccc(O)cc13)-c1cc3c(c(=O)n1C2)COC(=O)[C@]3(O)CC + C#Cc1c(F)ccc2cc(O)cc(-c3ncc4c(N5CC6CCC(C5)N6)nc(OCC56CCCN5CC(F)C6)nc4c3F)c12 ... 112
CC1(C)CCC(Nc2ncc(C(F)(F)F)c(-c3c[nH]c4c(P(C)(C)=O)c(C#N)ccc34)n2)CN1 (centres undefined) + C=CC(=O)N1CCN(c2nc(OCC3CCCN3C)nc3c(F)c(-c4nc(N)cc(C)c4C(F)(F)F)c(Cl)cc23)C(C)C1 ... 102
CC1(C)CCC(Nc2ncc(C(F)(F)F)c(-c3c[nH]c4c(P(C)(C)=O)c(C#N)ccc34)n2)CN1 (centres undefined) + C#Cc1c(F)ccc2cc(O)cc(-c3ncc4c(N5CC6CCC(C5)N6)nc(OCC56CCCN5CC(F)C6)nc4c3F)c12 ... 109

So, CCc1c2c(nc3ccc(O)cc13)-c1cc3c(c(=O)n1C2)COC(=O)[C@]3(O)CC + C=CC(=O)N1CCN(c2nc(OCC3CCCN3C)nc3c(F)c(-c4nc(N)cc(C)c4C(F)(F)F)c(Cl)cc23)C(C)C1 ? Its viability, T/C was 110
